Tested on: RXF 393 renal
Assay: NCI tumour cell line growth inhibition, 48 h
endpointName: TGI (µM)
Note: unit µM is implicit; provide only the numeric part.

Quick check: TGI of Cc1ccc(S(=O)(=O)OC2CSS(=O)CC2OS(=O)(=O)c2ccc(C)cc2)cc1 (centres undefined) ? 20.8

Again, but for O=C(CC(=O)N(C(=O)/C=C\c1ccccc1)c1ccc(Cl)cc1)N1N=C(c2ccccc2)C(N=Nc2cccc([N+](=O)[O-])c2)C1=O (centres undefined) 36.9

Next record, please: Nc1ncnn2c(C3OC(CO)C(O)C3O)ccc12 (centres undefined) 0.667

How about FC(F)(F)c1ccc(Nc2nc(-c3c(C(F)(F)F)nc4ccccn34)cs2)cc1 ? 0.316

----------
System: MALME-3M melanoma
Experiment: NCI tumour cell line growth inhibition, 48 h
endpointName: TGI

Item: C=C(C)C1=CCC[C@]2(C1)N=C(OC)[C@@H](C(C)C)N=C2OC Test system: MALME-3M melanoma Read-out: TGI Value: ? > 100 µM

Likewise for CCOc1ccccc1N1C(=O)C(=O)C(c2nc3ccccc3o2)C(=O)C1=O ? > 100 µM

What do we get for CCCCNc1nc(C#N)c(N)s1 ? > 100 µM

Query CC(C)(C)n1cc(-c2ccnc(NCCCNS(=O)(=O)c3ccc(C(F)(F)F)cc3)c2)c(-c2cccc(O)c2)n1 next 3.38 µM

Queued: O=C1/C(=C/c2cccc(F)c2)CCCc2ccccc21 23.8 µM

Next entry: NC(=O)N/N=C(\CC1OC(=O)c2ccccc21)c1ccco1 (configuration not stated) > 100 µM

One more molecule: CCOC(=O)N1CCN(C=S)CC1 > 100 µM

----------
Test system: LOX IMVI melanoma
Experiment: NCI tumour cell line growth inhibition, 48 h; in the data active = GI50 below about 0.43 µM; inactive = the rest
Mark one answer only. Choices: active, inactive

Identify the outcome logged in this assay for the molecule shown: COc1cc(/C=C/C(=O)c2cccc(Nc3nc(Nc4ccccc4)nc(Nc4ccccc4)n3)c2)cc(OC)c1OC inactive

What do we get for Cc1cc(O)c(C(C)C)cc1S(=O)(=O)O (tested in a mixture with another compound) ? inactive

Entry to check: COc1cc(CSc2nc3ccc(C)cc3c(=O)n2-c2ccccc2)cc(OC)c1OC inactive

What do you get for COc1ccc(C(=O)c2cc(OC)c(OC)c(OC)c2)cc1OC(=O)CCl ? active

Next molecule: C=C(C)C(=O)Nc1ccc(NC(C)C)cc1 inactive

Next: C=C1C(=O)O[C@H]2[C@H]1CC/C(COC(=O)NCc1cn(C)c3ccccc13)=C\CC[C@@]1(C)O[C@@H]21 inactive

Record: CCCCCCCCCCCCCCCCCCOc1ccccc1CC(=O)OCC[N+]1(C)CCCCC1 inactive

----------
System: SNB-78 CNS
Assay: NCI tumour cell line growth inhibition, 48 h
endpointName: TGI

State the recorded TGI for this entry: CCCCNc1nc(C#N)c(N)s1 > 100 µM

Same for CC(C)C1CC[C@@H](C)C[C@@]1(O)CC(N)=O (stereo not given in full) > 100 µM

Consider next the compound C[C@]12CCC(=O)C=C1CC[C@@H]1[C@@H]2CC[C@]2(C)C(=O)NC(=O)C[C@@H]12 in the same way. > 100 µM

Record: CCN(CC)c1c(C(=O)/C=C/c2ccc(OC)cc2)c(-c2ccccc2)nn(C)c1=O > 100 µM

Further, for Cc1cccc(C)c1NC(=O)C(C#N)C1=C(Cl)C(=O)c2ccccc2C1=O (stereo not given) ? 56.1 µM

Another compound to look at: NC1=C(NC(=O)Cc2ccc(F)cc2)C(=O)c2ccccc2C1=O 65.1 µM

Next compound up: CCOc1ccc(NC(=O)C(=O)CC(=O)c2sc(NNC(C)=O)nc2C)cc1 > 100 µM

Now the same for CCCCOC(=O)C1C2CCC(O2)C1C(=O)OCCCC (stereo not given) > 100 µM

Now the compound Cn1cc2ccccc2c1-c1nc(F)nc(F)n1 > 100 µM

Let us now turn to O=C(CSc1nnc(-c2ccc(N=Cc3ccc(Cl)cc3)cc2)o1)Nc1ccccc1[N+](=O)[O-] > 100 µM
